Reported values of log10(Kd) for individual entries
# measured target: galectin-3 (Homo sapiens, UniProt P17931)
# Construct: made in house
# Sequence (P17931 whole entry): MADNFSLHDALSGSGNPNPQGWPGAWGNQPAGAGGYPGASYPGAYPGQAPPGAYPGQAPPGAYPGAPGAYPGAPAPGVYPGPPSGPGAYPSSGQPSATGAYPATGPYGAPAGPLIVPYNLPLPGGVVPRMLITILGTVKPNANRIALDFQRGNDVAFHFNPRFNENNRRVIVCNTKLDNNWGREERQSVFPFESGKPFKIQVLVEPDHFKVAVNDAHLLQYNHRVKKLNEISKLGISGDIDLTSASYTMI
# protocol description: competitive fluorescence polarization assay, galectin-3
# condition parameters: Kd and SEM from 3–6 single point measurements, > values estimated, no apparent binding at highest concentration, read-out: Dissociation constants, Galectin-3
// units: mM (pre-log); metric: Kd; scale: log10

Q: // fetch log10(Kd) given entry OC[C@H]1O[C@@H](c2cn(-c3ccc(Br)cc3F)nn2)[C@H](O)[C@@H](O)[C@H]1O [Compound 1o]
Ans: -0.11

***
Q: // fetch log10(Kd) given entry CC(=O)c1cccc(-n2cc([C@@H]3O[C@H](CO)[C@H](O)[C@H](O)[C@H]3O)nn2)c1 [Compound 1y]
Ans: 0.00

Q: // fetch log10(Kd) given entry OC[C@H]1O[C@@H](c2cn(-c3ccc(Br)cc3)nn2)[C@H](O)[C@@H](O)[C@H]1O [Compound 1c]
Ans: 0.15

Q: // fetch log10(Kd) given entry CS(=O)(=O)c1cccc(-n2cc([C@@H]3O[C@H](CO)[C@H](O)[C@H](O)[C@H]3O)nn2)c1 [Compound 1w]
Ans: 0.15

Q: // fetch log10(Kd) given entry CS(=O)(=O)c1ccc(-n2cc([C@@H]3O[C@H](CO)[C@H](O)[C@H](O)[C@H]3O)nn2)cc1 [Compound 1v]
Ans: -0.16

Q: // fetch log10(Kd) given entry OC[C@H]1O[C@@H](c2cn(-c3ccccc3F)nn2)[C@H](O)[C@@H](n2cc(-c3ccccc3)nn2)[C@H]1O [Compound 16a]
Ans: -1.47

###

# measured target: galectin-4C (Homo sapiens, UniProt P56470)
# Construct: made in house; host or cells: E. coli BL-21 (DE3)
# Sequence (P56470 185-323): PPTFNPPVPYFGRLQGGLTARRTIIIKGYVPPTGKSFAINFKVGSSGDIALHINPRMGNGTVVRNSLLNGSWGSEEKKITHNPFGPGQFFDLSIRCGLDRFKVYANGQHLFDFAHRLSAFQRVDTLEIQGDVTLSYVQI
# protocol description: competitive fluorescence polarization assay, galectin-4C
# Assay type: binding
# condition parameters: fluorescence polarization; x/y cells = only two data points revealed inhibition, both shown; > values estimated, no apparent binding at highest concentration; read-out: Dissociation constants, Galectin-4C
Reported values of Kd for individual entries
Field format: number, assumed µM, no unit text.

Q: // fetch Kd given entry OC[C@H]1O[C@@H](c2cnc(-c3cccc4ccccc34)o2)[C@H](O)[C@@H](n2cc(-c3ccccc3)nn2)[C@H]1O
Ans: 2.3

Q: // fetch Kd given entry OC[C@H]1O[C@@H](Cn2cc(-c3ccc(F)cc3)nn2)[C@H](O)[C@@H](n2cc(-c3ccccc3)nn2)[C@H]1O [Compound 24a]
Ans: 9.5

***
Q: // fetch Kd given entry OC[C@H]1O[C@@H](c2cn(-c3ccccc3F)nn2)[C@H](O)[C@@H](n2cc(-c3ccccc3)nn2)[C@H]1O [Compound 16a]
Ans: 18

###

# measured target: galectin-4C (Homo sapiens)
# Construct: made in house; host or cells: E. coli BL-21 (DE3)
# protocol description: competitive fluorescence polarization assay, galectin-4C
# Type: binding
# condition parameters: fluorescence polarization; x/y cells = only two data points revealed inhibition, both shown; > values estimated, no apparent binding at highest concentration; read-out: Dissociation constants, Galectin-4C
recorded endpoint: Kd (mM)
Field format: number, assumed mM, no unit text.

Take a look at these entries with their results.
Q: // fetch Kd given entry CC(=O)c1ccc(-n2cc([C@@H]3O[C@H](CO)[C@H](O)[C@H](O)[C@H]3O)nn2)cc1
Ans: 1.9

Q: // fetch Kd given entry OC[C@H]1O[C@@H](Cn2cc(-c3ccccc3)nn2)[C@H](O)[C@@H](n2cc(-c3ccccc3)nn2)[C@H]1O [Compound 24c]
Ans: 0.019

Q: // fetch Kd given entry OC[C@H]1O[C@@H](Cn2cc(-c3ccc(C(F)(F)F)cc3)nn2)[C@H](O)[C@@H](n2cc(-c3ccccc3)nn2)[C@H]1O [Compound 24b]
Ans: 0.012

Q: // fetch Kd given entry OC[C@H]1O[C@@H](c2cn(-c3cc(Cl)ccc3F)nn2)[C@H](O)[C@@H](O)[C@H]1O
Ans: 1.3

Q: // fetch Kd given entry OC[C@H]1O[C@@H](c2cn(-c3ccc(-c4ccccc4)cc3)nn2)[C@H](O)[C@@H](O)[C@H]1O
Ans: 0.88

Q: // fetch Kd given entry OC[C@H]1O[C@@H](c2cn(-c3ccc4c(c3)CCC4)nn2)[C@H](O)[C@@H](O)[C@H]1O
Ans: 2.1

Q: // fetch Kd given entry O=[N+]([O-])c1ccc(-n2cc([C@@H]3O[C@H](CO)[C@H](O)[C@H](O)[C@H]3O)nn2)cc1
Ans: 0.91

Q: // fetch Kd given entry OC[C@H]1O[C@@H](Cn2cc(-c3cc(F)c(F)c(F)c3)nn2)[C@H](O)[C@@H](n2cc(-c3ccccc3)nn2)[C@H]1O [Compound 24d]
Ans: 0.022

Kindly review the next molecule as well.
Q: // fetch Kd given entry OC[C@H]1O[C@@H](c2cn(-c3ccccn3)nn2)[C@H](O)[C@@H](n2cc(-c3ccccc3)nn2)[C@H]1O [Compound 16b]
Ans: 0.0096

Measured values drawn from paper PMC12302229 for this set.
